Just for reference, patent US20230416248A1 is where these values come from.

- target entity: BRM (Homo sapiens, UniProt P51531)
- Construct: made in house; host or cells: High Five insect cells
- Sequence (P51531 whole entry): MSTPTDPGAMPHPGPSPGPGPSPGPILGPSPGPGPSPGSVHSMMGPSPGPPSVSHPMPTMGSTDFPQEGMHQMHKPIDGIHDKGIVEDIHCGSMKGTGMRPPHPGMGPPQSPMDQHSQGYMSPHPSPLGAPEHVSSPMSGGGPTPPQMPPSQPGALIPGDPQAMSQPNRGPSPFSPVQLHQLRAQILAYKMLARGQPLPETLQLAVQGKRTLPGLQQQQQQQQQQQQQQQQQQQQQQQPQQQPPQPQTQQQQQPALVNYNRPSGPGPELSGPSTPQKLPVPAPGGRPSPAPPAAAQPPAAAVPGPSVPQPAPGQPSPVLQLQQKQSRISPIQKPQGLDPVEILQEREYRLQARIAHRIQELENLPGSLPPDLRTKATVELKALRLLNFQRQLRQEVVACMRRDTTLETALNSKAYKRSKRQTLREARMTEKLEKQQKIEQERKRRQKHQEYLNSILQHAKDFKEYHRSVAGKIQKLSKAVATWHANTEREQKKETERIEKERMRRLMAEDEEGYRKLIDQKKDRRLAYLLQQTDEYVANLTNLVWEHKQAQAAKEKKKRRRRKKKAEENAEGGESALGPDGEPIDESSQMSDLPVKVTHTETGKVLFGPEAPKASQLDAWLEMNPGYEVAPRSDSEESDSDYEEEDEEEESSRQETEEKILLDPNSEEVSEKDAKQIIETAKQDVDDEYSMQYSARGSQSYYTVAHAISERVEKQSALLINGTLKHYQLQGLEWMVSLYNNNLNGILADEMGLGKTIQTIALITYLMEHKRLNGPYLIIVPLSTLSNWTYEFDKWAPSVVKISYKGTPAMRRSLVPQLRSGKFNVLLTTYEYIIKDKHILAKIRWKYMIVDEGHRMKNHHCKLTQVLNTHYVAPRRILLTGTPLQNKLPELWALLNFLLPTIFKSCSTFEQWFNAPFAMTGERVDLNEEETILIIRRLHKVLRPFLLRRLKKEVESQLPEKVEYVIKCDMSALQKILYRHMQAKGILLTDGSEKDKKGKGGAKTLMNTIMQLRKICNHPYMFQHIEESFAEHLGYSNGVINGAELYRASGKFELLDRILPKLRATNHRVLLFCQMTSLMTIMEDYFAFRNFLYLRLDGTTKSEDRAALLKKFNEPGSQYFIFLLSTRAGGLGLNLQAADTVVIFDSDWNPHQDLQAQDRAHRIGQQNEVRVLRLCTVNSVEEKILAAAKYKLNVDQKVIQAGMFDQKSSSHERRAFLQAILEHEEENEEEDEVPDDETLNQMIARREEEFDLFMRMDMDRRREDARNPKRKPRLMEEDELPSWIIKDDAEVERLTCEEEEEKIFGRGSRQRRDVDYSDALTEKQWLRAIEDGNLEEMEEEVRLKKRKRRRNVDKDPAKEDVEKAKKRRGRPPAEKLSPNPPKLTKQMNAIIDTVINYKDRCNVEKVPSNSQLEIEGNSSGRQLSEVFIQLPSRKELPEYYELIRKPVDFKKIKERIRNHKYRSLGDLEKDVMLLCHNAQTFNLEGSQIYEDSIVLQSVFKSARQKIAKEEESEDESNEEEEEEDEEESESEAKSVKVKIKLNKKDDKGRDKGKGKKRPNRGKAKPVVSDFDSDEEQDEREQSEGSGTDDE
- procedure details: ATPase catalytic activity of BRM, ADP-Glo in vitro biochemical assay
- applied conditions: ADP-Glo ATPase assay, 30 nM BRM, 400 μM ATP
pIC50: −log10 of the molar value.
outcome measure: pIC50

Some entries whose results are on file:
Report pIC50 for O=C(NCc1cc2nc(N3CCOc4ccc(C5CC5)c(F)c43)ccc2cn1)c1ccc2c(c1)S(=O)(=O)CCOC2 [Compound 760] tested on BRM (Homo sapiens, UniProt P51531). 8.06

What about O=C(NCc1cc2nc(N3CCOc4cc(C5CC5)cc(F)c43)ccc2cn1)c1ccc2c(c1)S(=O)(=O)CCOC2 [Compound 765] ? 7.63

(A) O=C(NCc1cc2nc(-c3cccc(N4CC(C5(F)COC5)C4)n3)ccc2cn1)c1ccc2c(c1)S(=O)(=O)CCOC2 [Compound 797]
(B) Cc1cc(F)c2c(c1)OCCN2c1ccc2cnc(CNC(=O)c3ccc4c(c3)S(=O)(=O)CCOC4)cc2n1 [Compound 764]
Sorting by pIC50 in descending order, would A or B appear first? // return label of chosen record B
(B: 8.02, A: 7.73)
